# Test system: HS 578T breast
# measurement_description: NCI tumour cell line growth inhibition, 48 h
Kindly state GI50 for each of the entries shown.

Sample O=C(/C=C/C12c3ccccc3C(c3ccccc31)C1C(=O)NC(=O)C12)c1ccncc1 (stereo not given) — what was its GI50?
3.04 µM

Sample COc1ccc2c(c1)/C(=C/c1c(C)nc3sc(C)nn13)C(=O)N2 — what was its GI50?
5.16 µM

Sample CC1=C(C(=O)Nc2ccc(Cl)c(Cl)c2)C(c2cccc(Oc3ccccc3)c2)NC(=S)N1 (stereo not given) — what was its GI50?
5.03 µM

Sample COc1cc(Cc2cnc(/N=C3\C(=O)N(CN4CCN(c5c(F)cc6c(=O)c(C(=O)O)cn(C7CC7)c6c5OC)CC4C)c4ccc(F)cc43)nc2N)cc(OC)c1OC (stereo not given) — what was its GI50?
23.6 µM

Sample COc1ccc(C(=O)Cn2c(C(=O)c3ccccc3)nc(-c3ccc(OC)cc3)c2-c2ccc(OC)cc2)cc1 — what was its GI50?
45.6 µM

###

# Tested on: NCI-H522 lung
# measurement_description: NCI tumour cell line growth inhibition, 48 h
Where a SMILES comes first, the peptide text is derived from it. [ ]: non-standard residue; d: D form. The star is where a group is joined. ξ: configuration not given here. X6 = FC(F)(F)c1cc(NC(=S)*)cc(C(F)(F)F)c1; ξF = NC(Cc1ccccc1)C(=O)O
Kindly state TGI for each of the entries shown.

Sample O=C1C(=O)N(c2ccc(Cl)cc2Cl)C(=O)C(=O)C1c1nc2ccccc2s1 — what was its TGI?
> 57.2 µM

Sample O=C1CCC(=O)N1n1c(Cc2ccccc2)n[nH]c1=O — what was its TGI?
> 100 µM

Sample O=C1C2C(C(=O)N1OS(=O)(=O)c1ccccc1)N(Cc1ccccc1)C(=O)N2Cc1ccccc1 (stereo unspecified) — what was its TGI?
> 100 µM

Sample CCOC(=O)C1=C(C)NC(=S)NC1c1ccccc1 (stereo unspecified) — what was its TGI?
> 100 µM

Sample CCOC(=O)C(NC(C)=O)(Nc1ccc(F)cc1)C(F)(F)F (stereo unspecified) — what was its TGI?
> 100 µM

Sample COC(=O)CC1CCN(C#N)CC1CC[N+](=O)[O-] (stereo unspecified) — what was its TGI?
> 100 µM

Sample Cc1coc2c1CC1(C)C(CCC(O)C1C)C2 (stereo unspecified) — what was its TGI?
> 100 µM

Sample C[C@@]12C[C@@H](c3ccccc3O1)N1CCCCSC1=N2 — what was its TGI?
> 100 µM

Sample Cc1ccc(C(=O)/C(=C/c2ccc([N+](=O)[O-])cc2)SCc2ccc(Cl)cc2)cc1 — what was its TGI?
3.54 µM

Sample C=C1c2nc3ccccc3n2C=C(c2ccccc2)N1c1ccc([N+](=O)[O-])cc1 — what was its TGI?
24.4 µM

Sample CCCCCN(CCCCC)CCCNc1c2c(nc3ccc(Cl)cc13)CCCC2 — what was its TGI?
3.86 µM

Sample c1ccc(N=C2SC3=Nc4cccc5cccc(c45)N3C2=Nc2ccccc2)cc1 — what was its TGI?
> 100 µM

Sample COc1ccc2c3c1C(=O)CCCC3CO2 (stereo unspecified) — what was its TGI?
> 100 µM

Sample O=C(CC1(O)C(=O)Nc2c(Cl)cc(Cl)cc21)c1ccc(Br)cc1Br (stereo unspecified) — what was its TGI?
8.05 µM

Sample Brc1ccc(N=c2nc3ccccn3n3nc(-c4ccccc4)cc23)cc1 — what was its TGI?
88.2 µM

Sample C[C@]12CC[C@H](O)CC1=CC[C@@H]1C2CC[C@]2(C)C(=O)N(N)C(=O)CC12 (stereo partly specified) — what was its TGI?
> 100 µM

Sample O=C(NNC(=O)c1ccccc1SSc1ccccc1C(=O)NNC(=O)c1ccccc1S)c1ccccc1S — what was its TGI?
1.67 µM

Sample COC(=O)c1cc2c(n1S(=O)(=O)c1ccc(C)cc1)C(=O)C(=O)c1[nH]cc(C(=O)OCc3ccccc3)c1-2 — what was its TGI?
0.48 µM

Sample COc1cc(/C=N/NC(=O)c2ccc(C(F)(F)F)nc2Nc2ccc(Cl)cc2C)ccc1O — what was its TGI?
14.2 µM

Sample CN(C)C(=N)c1ccccc1 — what was its TGI?
> 100 µM

Sample C=C(Br)C(C)(Cl)CCC(Br)C(C)(C)Cl (stereo unspecified) — what was its TGI?
> 100 µM

Sample COc1ccc(C(=O)Cn2c(C(=O)c3ccccc3)nc(-c3ccc(OC)cc3)c2-c2ccc(OC)cc2)cc1 — what was its TGI?
> 100 µM

Sample Cn1cnc([N+](=O)[O-])c1Sc1nnc(-c2cccnc2)n1C — what was its TGI?
15.2 µM

Sample CC(C)/C(Cl)=N\OC(=O)Nc1ccc(S(N)(=O)=O)cc1 — what was its TGI?
2.55 µM

Sample CC/C=C\CCC/C=C1/C(=O)C=C[C@@H]1C/C=C\CCCC(=O)OC — what was its TGI?
3.77 µM

Sample COC(=O)[C@@H](NC(=O)CNC(=O)[C@H]1CCCN1C(=O)C(Cc1ccccc1)NC(=S)Nc1cc(C(F)(F)F)cc(C(F)(F)F)c1)C(C)C (stereo partly specified) (X6-[ξF][dP]GV-OMe) — what was its TGI?
8.65 µM

Sample CCc1ccc(CCN2CCCCC2)nc1 — what was its TGI?
> 100 µM

Sample c1ccc2cc(-c3cc(-c4cc(-c5ccc6ccccc6c5)on4)no3)ccc2c1 — what was its TGI?
> 100 µM

Sample C[n+]1c2ccccc2c(/C=N\NS(=O)(=O)c2ccc(O)c(C(=O)O)c2)c2ccccc21 — what was its TGI?
> 100 µM

Sample [N-]=[N+]=Nc1cc(=O)oc2ccccc12 — what was its TGI?
> 100 µM

Sample CCOc1ccc(NC(=O)C(=O)CC(=O)c2c[n+](=O)c3cc(C)c(C)cc3n2[O-])cc1 — what was its TGI?
> 100 µM

Sample O=C(Nc1ccccc1OC(F)(F)F)Nc1n[nH]c2ccccc12 — what was its TGI?
> 100 µM

Sample CC[C@@]1(C[C@H]2C[C@@]3(C(=O)OC)c4[nH]c5ccccc5c4CCN3C2=O)COC2(CCCCC2)O1 — what was its TGI?
> 100 µM

Sample CC(C)CC(=O)OC[n+]1ccc(-c2c(COC(=O)NC(C)C)c(COC(=O)NC(C)C)c3n2CCC3)cc1 — what was its TGI?
> 100 µM

Sample Oc1cc2c3c(c1)c1cc4c(cc1c[n+]3CC2)OCO4 — what was its TGI?
4.38 µM

Sample CC(C)CCCCCCCCCCCCC(=O)NCC(=O)NC1C(C)OC(Nc2ncnc3c2ncn3C)C(O)C1O (stereo unspecified) — what was its TGI?
31.9 µM
